Examples of compounds with documented TΔS follow.
- assayed.system: CbpB (Acetivibrio thermocellus (Clostridium thermocellum), UniProt A3DE73, V209A/V350L)
- Sequence (A3DE73 entry or part of it V209A/V350L): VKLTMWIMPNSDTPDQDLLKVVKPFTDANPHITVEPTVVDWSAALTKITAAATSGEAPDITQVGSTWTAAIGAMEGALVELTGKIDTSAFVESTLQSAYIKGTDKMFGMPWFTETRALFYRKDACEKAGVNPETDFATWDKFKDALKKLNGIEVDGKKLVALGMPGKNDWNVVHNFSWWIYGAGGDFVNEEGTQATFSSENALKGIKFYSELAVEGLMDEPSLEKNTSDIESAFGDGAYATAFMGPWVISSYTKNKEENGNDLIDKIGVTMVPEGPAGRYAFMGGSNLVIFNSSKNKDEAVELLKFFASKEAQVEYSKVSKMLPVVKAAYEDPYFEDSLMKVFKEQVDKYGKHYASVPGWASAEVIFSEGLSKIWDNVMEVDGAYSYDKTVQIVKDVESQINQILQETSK
- assay.protocol: ITC titration of carbohydrate ligands with CbpB
- Format: binding
- applied.conditions: ITC, 30°C
Give the quantity in kcal/mol, number only.

- OC[C@H]1O[C@@H](O[C@H]2[C@H](O)[C@@H](O)[C@H](O[C@H]3[C@H](O)[C@@H](O)C(O)O[C@@H]3CO)O[C@@H]2CO)[C@H](O)[C@@H](O)[C@@H]1O (some centres unmarked) [Cellotriose, cellotriose]: 10.7
- O=C[C@H](O)[C@@H](O)[C@H](O[C@@H]1O[C@H](CO)[C@@H](O)[C@H](O)[C@H]1O)[C@H](O)CO [Cellobiose, cellobiose]: 4.66
- OC[C@H]1O[C@@H](O[C@H]2[C@H](O)[C@@H](CO)OC(O)[C@@H]2O)[C@H](O)[C@@H](O)[C@@H]1O (some centres unmarked) [Laminaribiose, laminaribiose]: 7.98
- OC[C@H]1O[C@@H](O[C@H]2[C@H](O)[C@@H](O)[C@H](O[C@H]3[C@H](O)[C@@H](O)[C@H](O[C@H]4[C@H](O)[C@@H](O)[C@H](O[C@H]5[C@H](O)[C@@H](O)C(O)O[C@@H]5CO)O[C@@H]4CO)O[C@@H]3CO)O[C@@H]2CO)[C@H](O)[C@@H](O)[C@@H]1O (some centres unmarked) [Cellopentaose, cellopentaose]: 11.3

Consider the additional compound presented here.
Input line: Given the compound OC[C@H]1O[C@@H](O[C@H]2[C@H](O)[C@@H](O)[C@H](O[C@H]3[C@H](O)[C@@H](O)[C@H](O[C@H]4[C@H](O)[C@@H](O)C(O)O[C@@H]4CO)O[C@@H]3CO)O[C@@H]2CO)[C@H](O)[C@@H](O)[C@@H]1O (some centres unmarked) [Cellotetraose, cellotetraose] , write its reported TΔS.
Output line: 10.3

* * *

- assayed.system: CbpB (Acetivibrio thermocellus (Clostridium thermocellum), UniProt A3DE73, V209A/V350L)
- assay.protocol: ITC titration of carbohydrate ligands with CbpB
- Format: binding
- applied.conditions: ITC, 30°C
Given measured ΔH (change in enthalpy), output true (1) if it is greater than or equal to 2 kcal/mol and false (0) if not.

Here are 4 molecules together with their reported answers.
• OC[C@H]1O[C@@H](O[C@H]2[C@H](O)[C@@H](O)[C@H](O[C@H]3[C@H](O)[C@@H](O)C(O)O[C@@H]3CO)O[C@@H]2CO)[C@H](O)[C@@H](O)[C@@H]1O (some centres unmarked) = true (1)
• OC[C@H]1O[C@@H](O[C@H]2[C@H](O)[C@@H](CO)OC(O)[C@@H]2O)[C@H](O)[C@@H](O)[C@@H]1O (some centres unmarked) = false (0)
• OC[C@H]1O[C@@H](O[C@H]2[C@H](O)[C@@H](O)[C@H](O[C@H]3[C@H](O)[C@@H](O)[C@H](O[C@H]4[C@H](O)[C@@H](O)[C@H](O[C@H]5[C@H](O)[C@@H](O)C(O)O[C@@H]5CO)O[C@@H]4CO)O[C@@H]3CO)O[C@@H]2CO)[C@H](O)[C@@H](O)[C@@H]1O (some centres unmarked) = true (1)
• O=C[C@H](O)[C@@H](O)[C@H](O[C@@H]1O[C@H](CO)[C@@H](O)[C@H](O)[C@H]1O)[C@H](O)CO = false (0)

Now for a further molecule.
Input line: Test whether the molecule OC[C@H]1O[C@@H](O[C@H]2[C@H](O)[C@@H](O)[C@H](O[C@H]3[C@H](O)[C@@H](O)[C@H](O[C@H]4[C@H](O)[C@@H](O)C(O)O[C@@H]4CO)O[C@@H]3CO)O[C@@H]2CO)[C@H](O)[C@@H](O)[C@@H]1O (some centres unmarked) records ΔH (change in enthalpy) of 2 kcal/mol or higher.
Output line: false (0)

* * *

- assayed.system: CbpB (Acetivibrio thermocellus (Clostridium thermocellum), UniProt A3DE73, V209A/V350L)
- assay.protocol: ITC titration of carbohydrate ligands with CbpB
- Format: binding
- applied.conditions: ITC, 30°C, 50 mM Tris-HCl pH 8.0, 100 mM NaCl, single-site model; read-out: KD (dissociation constant)
- Protocol: Isothermal titration calorimetry measurements were performed at 30°C using a MicroCal PEAQ-ITC (Malvern Panalytical Ltd., Malvern, United Kingdom). Protein samples were dialyzed against buffer containing 50 mM Tris-HCl (pH 8.0) and 100 mM NaCl. Carbohydrate-ligand solutions of cellodextrins, glucose, and xylose were prepared using the same buffer as for protein dialysis. […] Binding parameters were determined by fitting the experimental binding isotherms using a single-site model.
measured.endpoint: pKd
Please keep in mind that pKd is minus log10 of the molar concentration; only the number is needed.

* OC[C@H]1O[C@@H](O[C@H]2[C@H](O)[C@@H](O)[C@H](O[C@H]3[C@H](O)[C@@H](O)C(O)O[C@@H]3CO)O[C@@H]2CO)[C@H](O)[C@@H](O)[C@@H]1O (stereo partly shown) [Cellotriose, cellotriose] | 5.93

Input line: Given the molecule OC[C@H]1O[C@@H](O[C@H]2[C@H](O)[C@@H](CO)OC(O)[C@@H]2O)[C@H](O)[C@@H](O)[C@@H]1O (stereo partly shown) [Laminaribiose, laminaribiose] , write its reported pKd.
Output line: 4.97

Input line: Given the molecule OC[C@H]1O[C@@H](O[C@H]2[C@H](O)[C@@H](O)[C@H](O[C@H]3[C@H](O)[C@@H](O)[C@H](O[C@H]4[C@H](O)[C@@H](O)C(O)O[C@@H]4CO)O[C@@H]3CO)O[C@@H]2CO)[C@H](O)[C@@H](O)[C@@H]1O (stereo partly shown) [Cellotetraose, cellotetraose] , write its reported pKd.
Output line: 6.25

Input line: Given the molecule OC[C@H]1O[C@@H](O[C@H]2[C@H](O)[C@@H](O)[C@H](O[C@H]3[C@H](O)[C@@H](O)[C@H](O[C@H]4[C@H](O)[C@@H](O)[C@H](O[C@H]5[C@H](O)[C@@H](O)C(O)O[C@@H]5CO)O[C@@H]4CO)O[C@@H]3CO)O[C@@H]2CO)[C@H](O)[C@@H](O)[C@@H]1O (stereo partly shown) [Cellopentaose, cellopentaose] , write its reported pKd.
Output line: 6.17

* * *

Examples of compounds with documented N (number of binding site) follow.
- assayed.system: CbpB (Acetivibrio thermocellus (Clostridium thermocellum), UniProt A3DE73, V209A/V350L)
- assay.protocol: ITC titration of carbohydrate ligands with CbpB
- Format: binding
- applied.conditions: ITC, 30°C, 50 mM Tris-HCl pH 8.0, 100 mM NaCl, single-site model

Field: example entries. Status: answers known.
* OC[C@H]1O[C@@H](O[C@H]2[C@H](O)[C@@H](O)[C@H](O[C@H]3[C@H](O)[C@@H](O)C(O)O[C@@H]3CO)O[C@@H]2CO)[C@H](O)[C@@H](O)[C@@H]1O (some centres unmarked) [Cellotriose, cellotriose] | 0.97 ± 0.02
* OC[C@H]1O[C@@H](O[C@H]2[C@H](O)[C@@H](O)[C@H](O[C@H]3[C@H](O)[C@@H](O)[C@H](O[C@H]4[C@H](O)[C@@H](O)C(O)O[C@@H]4CO)O[C@@H]3CO)O[C@@H]2CO)[C@H](O)[C@@H](O)[C@@H]1O (some centres unmarked) [Cellotetraose, cellotetraose] | 1.02 ± 0.08
* O=C[C@H](O)[C@@H](O)[C@H](O[C@@H]1O[C@H](CO)[C@@H](O)[C@H](O)[C@H]1O)[C@H](O)CO [Cellobiose, cellobiose] | 1.03 ± 0.02
* OC[C@H]1O[C@@H](O[C@H]2[C@H](O)[C@@H](O)[C@H](O[C@H]3[C@H](O)[C@@H](O)[C@H](O[C@H]4[C@H](O)[C@@H](O)[C@H](O[C@H]5[C@H](O)[C@@H](O)C(O)O[C@@H]5CO)O[C@@H]4CO)O[C@@H]3CO)O[C@@H]2CO)[C@H](O)[C@@H](O)[C@@H]1O (some centres unmarked) [Cellopentaose, cellopentaose] | 1.02 ± 0.01

Input line: Name the value of N (number of binding site) reported for OC[C@H]1O[C@@H](O[C@H]2[C@H](O)[C@@H](CO)OC(O)[C@@H]2O)[C@H](O)[C@@H](O)[C@@H]1O (some centres unmarked) [Laminaribiose, laminaribiose] when tested on CbpB (Acetivibrio thermocellus (Clostridium thermocellum), UniProt A3DE73, V209A/V350L).
Output line: 0.98 ± 0.04

* * *

- assayed.system: CbpB (Acetivibrio thermocellus (Clostridium thermocellum), UniProt A3DE73, V209A/V350L)
- assay.protocol: ITC titration of carbohydrate ligands with CbpB
- Type: binding
- applied.conditions: ITC, 30°C
Examples of molecules with documented Ka follow.

• OC[C@H]1O[C@@H](O[C@H]2[C@H](O)[C@@H](O)[C@H](O[C@H]3[C@H](O)[C@@H](O)[C@H](O[C@H]4[C@H](O)[C@@H](O)[C@H](O[C@H]5[C@H](O)[C@@H](O)C(O)O[C@@H]5CO)O[C@@H]4CO)O[C@@H]3CO)O[C@@H]2CO)[C@H](O)[C@@H](O)[C@@H]1O (some centres unmarked) = 14.9 ± 3.3 ×10^5 · M^−1
• OC[C@H]1O[C@@H](O[C@H]2[C@H](O)[C@@H](CO)OC(O)[C@@H]2O)[C@H](O)[C@@H](O)[C@@H]1O (some centres unmarked) = 0.93 ± 0.25 ×10^5 · M^−1
• OC[C@H]1O[C@@H](O[C@H]2[C@H](O)[C@@H](O)[C@H](O[C@H]3[C@H](O)[C@@H](O)[C@H](O[C@H]4[C@H](O)[C@@H](O)C(O)O[C@@H]4CO)O[C@@H]3CO)O[C@@H]2CO)[C@H](O)[C@@H](O)[C@@H]1O (some centres unmarked) = 17.8 ± 2.5 ×10^5 · M^−1
• OC[C@H]1O[C@@H](O[C@H]2[C@H](O)[C@@H](O)[C@H](O[C@H]3[C@H](O)[C@@H](O)C(O)O[C@@H]3CO)O[C@@H]2CO)[C@H](O)[C@@H](O)[C@@H]1O (some centres unmarked) = 8.55 ± 1.69 ×10^5 · M^−1

Consider the additional molecule presented here.
Input line: Name the value of Ka reported for `O=C[C@H](O)[C@@H](O)[C@H](O[C@@H]1O[C@H](CO)[C@@H](O)[C@H](O)[C@H]1O)[C@H](O)CO` when tested on CbpB (Acetivibrio thermocellus (Clostridium thermocellum), UniProt A3DE73, V209A/V350L).
Output line: 5.29 ± 0.99 ×10^5 · M^−1
